The measurements presented in this section are drawn from the kinase profiling compilation of Christmann-Franck et al. (2016).

Target: DYRK2 (human) (UniProt Q92630)
Sequence (Q92630 whole entry, looked up): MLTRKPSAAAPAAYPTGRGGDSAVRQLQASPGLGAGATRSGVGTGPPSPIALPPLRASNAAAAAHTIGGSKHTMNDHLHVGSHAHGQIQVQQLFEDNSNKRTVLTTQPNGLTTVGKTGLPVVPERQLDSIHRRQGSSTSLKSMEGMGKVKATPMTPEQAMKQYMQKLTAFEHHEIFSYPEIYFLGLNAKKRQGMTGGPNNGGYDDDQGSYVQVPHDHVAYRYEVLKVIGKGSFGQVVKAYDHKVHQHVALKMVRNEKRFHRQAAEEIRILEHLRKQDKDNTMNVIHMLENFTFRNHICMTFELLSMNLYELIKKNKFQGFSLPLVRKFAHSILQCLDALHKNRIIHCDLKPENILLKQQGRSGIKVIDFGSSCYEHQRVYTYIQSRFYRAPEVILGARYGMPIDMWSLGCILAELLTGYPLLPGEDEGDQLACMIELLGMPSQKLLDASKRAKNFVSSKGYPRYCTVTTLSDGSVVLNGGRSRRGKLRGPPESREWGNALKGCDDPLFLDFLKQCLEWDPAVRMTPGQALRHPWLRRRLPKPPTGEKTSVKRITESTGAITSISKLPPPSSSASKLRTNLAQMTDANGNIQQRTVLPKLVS
Test: radiometric filter-binding kinase assay
Conditions: compound 10.0 µM
Entries and their measured residual activity follow.
Reported endpoint: residual activity (%)

>>> df
                                   molecule               target_under_test  reported
0                  Cc1ccc(=O)n(-c2ccccc2)c1  DYRK2 (human) (UniProt Q92630)        98
1  Cc1ccc2c(c1)C(=O)[C@@]1(O)CCN(c3ccccc3)C1=N2  DYRK2 (human) (UniProt Q92630)        76
2  O=C1Nc2nc(-c3c(O)cccc3OCC3CC3)cc(C3CCCNC3)c2CO1 (stereo not given)  DYRK2 (human) (UniProt Q92630)        77
3           Cn1nc(Nc2ccc(F)cc2)c2c(N)ncnc21  DYRK2 (human) (UniProt Q92630)        83
4  CC(C)(C#N)c1ccc(N2C(=O)OCc3cnc4ccc(-c5cnc6ccccc6c5)cc4c32)cc1  DYRK2 (human) (UniProt Q92630)        85
5  O=C(O)c1cc(N=Nc2ccc(S(=O)(=O)Nc3ccccn3)cc2)ccc1O  DYRK2 (human) (UniProt Q92630)        79
6           Cc1cccc(Nc2nn(C)c3ncnc(N)c23)c1  DYRK2 (human) (UniProt Q92630)        89
7  Nc1cccc2c1CN(C1CCC(=O)NC1=O)C2=O (stereo not given)  DYRK2 (human) (UniProt Q92630)       103
8  O=C(NOC[C@H](O)CO)c1ccc(F)c(F)c1Nc1ccc(I)cc1Cl  DYRK2 (human) (UniProt Q92630)       107
9  C=CC(=O)N1CCC[C@@H](n2nc(-c3ccc(Oc4ccccc4)cc3)c3c(N)ncnc32)C1  DYRK2 (human) (UniProt Q92630)        79
